Hello, the source for this data is patent US8859559B2, in case you need it.

Target: ENaC (Epithelial Sodium Channel) (Mus musculus, UniProt Q61180+Q9WU38+Q9WU39)
Construct: Mouse kidney M-1 cells were cultivated in DMEM; endogenous in cells
Sequence (Q61180 1-699): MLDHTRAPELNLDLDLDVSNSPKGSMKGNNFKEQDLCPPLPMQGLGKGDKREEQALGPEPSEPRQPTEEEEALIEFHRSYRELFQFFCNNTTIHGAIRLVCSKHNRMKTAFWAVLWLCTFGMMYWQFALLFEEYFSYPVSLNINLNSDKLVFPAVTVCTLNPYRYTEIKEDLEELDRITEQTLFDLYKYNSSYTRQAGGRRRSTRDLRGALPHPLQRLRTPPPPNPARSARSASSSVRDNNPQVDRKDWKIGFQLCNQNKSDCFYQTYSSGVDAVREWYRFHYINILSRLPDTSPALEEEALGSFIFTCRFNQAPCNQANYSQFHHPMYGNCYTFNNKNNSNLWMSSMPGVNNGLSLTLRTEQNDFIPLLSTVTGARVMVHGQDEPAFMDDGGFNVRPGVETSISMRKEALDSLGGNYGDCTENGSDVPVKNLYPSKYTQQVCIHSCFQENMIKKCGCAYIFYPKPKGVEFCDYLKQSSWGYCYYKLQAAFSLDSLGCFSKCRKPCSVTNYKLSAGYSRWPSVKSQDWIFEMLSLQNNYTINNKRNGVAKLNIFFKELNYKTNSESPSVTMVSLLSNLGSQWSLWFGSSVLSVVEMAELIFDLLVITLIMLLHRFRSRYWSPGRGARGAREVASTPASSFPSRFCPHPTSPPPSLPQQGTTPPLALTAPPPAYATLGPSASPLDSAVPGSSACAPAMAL
Sequence (Q9WU38 1-638): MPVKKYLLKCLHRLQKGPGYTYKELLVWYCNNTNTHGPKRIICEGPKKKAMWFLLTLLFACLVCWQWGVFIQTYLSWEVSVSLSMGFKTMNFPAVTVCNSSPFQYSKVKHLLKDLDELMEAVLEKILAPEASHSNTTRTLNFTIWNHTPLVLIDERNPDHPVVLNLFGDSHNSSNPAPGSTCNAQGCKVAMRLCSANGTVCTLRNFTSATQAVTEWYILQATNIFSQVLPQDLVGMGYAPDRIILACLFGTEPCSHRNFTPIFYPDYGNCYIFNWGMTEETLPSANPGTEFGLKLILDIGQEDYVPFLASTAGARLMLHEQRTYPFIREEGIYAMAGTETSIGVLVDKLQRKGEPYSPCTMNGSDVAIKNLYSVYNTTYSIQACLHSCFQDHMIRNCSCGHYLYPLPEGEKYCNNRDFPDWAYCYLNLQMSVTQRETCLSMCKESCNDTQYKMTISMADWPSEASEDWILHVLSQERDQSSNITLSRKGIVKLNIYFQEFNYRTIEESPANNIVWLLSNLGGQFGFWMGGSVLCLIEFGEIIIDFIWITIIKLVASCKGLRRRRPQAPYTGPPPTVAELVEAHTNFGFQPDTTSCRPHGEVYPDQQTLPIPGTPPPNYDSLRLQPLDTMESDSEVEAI
Sequence (Q9WU39 1-655): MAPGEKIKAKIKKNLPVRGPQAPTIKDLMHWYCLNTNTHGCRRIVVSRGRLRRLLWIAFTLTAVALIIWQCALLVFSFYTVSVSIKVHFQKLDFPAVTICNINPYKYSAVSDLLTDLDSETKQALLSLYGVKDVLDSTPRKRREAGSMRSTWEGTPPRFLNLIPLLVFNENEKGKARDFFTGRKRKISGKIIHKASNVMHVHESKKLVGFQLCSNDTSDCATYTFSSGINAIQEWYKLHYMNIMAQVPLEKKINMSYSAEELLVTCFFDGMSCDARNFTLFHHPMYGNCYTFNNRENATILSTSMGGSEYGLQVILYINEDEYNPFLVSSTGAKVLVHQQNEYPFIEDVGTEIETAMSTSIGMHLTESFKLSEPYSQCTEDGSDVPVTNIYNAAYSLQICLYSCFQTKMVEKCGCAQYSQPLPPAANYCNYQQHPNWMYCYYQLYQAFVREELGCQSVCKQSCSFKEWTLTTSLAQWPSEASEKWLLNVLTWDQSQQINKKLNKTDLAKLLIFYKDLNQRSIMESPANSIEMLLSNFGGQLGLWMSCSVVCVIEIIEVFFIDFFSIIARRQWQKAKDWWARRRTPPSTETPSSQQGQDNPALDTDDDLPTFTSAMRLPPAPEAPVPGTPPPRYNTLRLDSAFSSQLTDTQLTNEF
Assay: Ussing chamber: inhibition of amiloride sensitive short circuit current (I_sc) in M-1 cells
Details: mouse kidney M-1 cells
MEASURE_NAME: IC50 (nM)

{"COMPOUND": "NC(=NC(=O)c1nc(Cl)c(N)nc1N)NC1CCN(Cc2ccc(CCn3cc(COCCO)nn3)cc2)CC1 [Example 3.2]", "IC50 [nM]": 10}
{"COMPOUND": "N/C(=N\\C(=O)c1nc(Cl)c(N)nc1N)NC1CCN(Cc2ccc(C(=O)NCCCS(=O)(=O)O)cc2)CC1 [Example 2.1]", "IC50 [nM]": 12}
{"COMPOUND": "CC(=O)Oc1ccc(CN2CCC(N/C(N)=N/C(=O)c3nc(Cl)c(N)nc3N)CC2)cc1 [Example 1.41]", "IC50 [nM]": 7}
{"COMPOUND": "COC(=O)Cc1cccc(CN2CCC(NC(N)=NC(=O)c3nc(Cl)c(N)nc3N)CC2)c1 [Example 1.6]", "IC50 [nM]": 4}
{"COMPOUND": "NC(=NC(=O)c1nc(Cl)c(N)nc1N)NC1CCN(Cc2ccc(CCn3cc(CCC(=O)N4CCOCC4)nn3)cc2)CC1 [Example 3.43]", "IC50 [nM]": 15}

I = NC(=NC(=O)c1nc(Cl)c(N)nc1N)NC1CCN(Cc2ccc(-n3cc(CCC(=O)N(CCOCCOCCO)CCOCCOCCO)nn3)cc2)CC1 [Example 3.16]
II = [N-]=[N+]=NCCc1ccc(CN2CCC(NC(N)=NC(=O)c3nc(Cl)c(N)nc3N)CC2)cc1 [Example 1.3]
Select the item whose IC50 value is smaller, choosing between I and II . Answer by quoting the chosen item's label. II
(II: 4 nM, I: 18 nM)

A = C#CCCCCOC(=O)c1ccc(CN2CCC(NC(N)=NC(=O)c3nc(Cl)c(N)nc3N)CC2)cc1 [Example 1.9]
B = N#Cc1ccc(CN2CCC(N/C(N)=N/C(=O)c3nc(Cl)c(N)nc3N)CC2)cc1 [Example 1.40]
C = NC(=NC(=O)c1nc(Cl)c(N)nc1N)NC1CCN(Cc2ccc(-c3cn(CCOCCOC(c4ccccc4)(c4ccccc4)c4ccccc4)nn3)cc2)CC1 [Example 3.30]
D = NC(=NC(=O)c1nc(Cl)c(N)nc1N)NC1CCN(Cc2ccc(OCC(=O)O)c(OCC(=O)O)c2)CC1 [Example 8.5]
Sort entries by IC50 from minimum to maximum value. The labels, placed in the requested order, form the answer. C, B, A, D

1 = CN(C)CCN(CCN(C)C)C(=O)c1ccc(CN2CCC(NC(N)=NC(=O)c3nc(Cl)c(N)nc3N)CC2)cc1 [Example 2.2]
2 = COC(=O)COc1ccc(CN2CCC(N/C(N)=N/C(=O)c3nc(Br)c(N)nc3N)CC2)cc1 [Example 1.68]
Select the item whose IC50 value is smaller, choosing between 1 and 2 . Answer by quoting the chosen item's label. 1
(1: 6 nM, 2: 11 nM)
